The molecules listed here are annotated with their inhibition in vivo at 10 mg/kg.
tested on: C57BL/6 mouse; test: Assessment of glucose tolerance improvement effect in mouse; type: in vivo; conditions: 2 h; 10 mg/kg oral, 30 min before oral glucose 2 g/kg; male C57BL/6 mouse; blood glucose AUC
ASSAY_READOUT: inhibition in vivo at 10 mg/kg

1) CC(C)c1nc(-c2c(F)cc(OCCCC3CCN(c4ccc(C(F)(F)F)cn4)CC3)cc2F)no1 | < 30%
2) CC(C)c1nc(-c2c(F)cc(OCCCC3CCN(c4ncc(C(F)(F)F)cn4)CC3)cc2F)no1 | < 30%
3) CC(C)c1nnc(-c2c(F)cc(OCCCC3CCN(c4cnc(Cl)cn4)CC3)cc2F)o1 | > 40%
4) CCc1cnc(N2CCC(CCCOc3cc(F)c(-c4noc(C)n4)c(F)c3)CC2)nc1 | 30 to 40%
5) Cc1nnc(-c2c(F)cc(OCCCC3CCN(c4ncc(C(F)(F)F)cn4)CC3)cc2F)o1 | > 40%
6) CCCCCc1cnc(N2CCC(CCCOc3cc(F)c(-c4noc(C(C)C)n4)c(F)c3)CC2)nc1 | < 30%
7) Cc1nnc(-c2c(F)cc(OCCCC3CCN(c4nc(C(C)C)no4)CC3)cc2F)o1 | 30 to 40%
8) CCc1cnc(N2CCC(CCCOc3cc(F)c(-c4noc([C@@H](O)CC)n4)c(F)c3)CC2)nc1 | 30 to 40%

* * *

The molecules listed here are annotated with their Emax at 0.001 µM.
Target: Human GPR119 (Homo sapiens)
Construct: host or cells: HEK293 (ATCC)
Sequence (Q8TDV5 1-335): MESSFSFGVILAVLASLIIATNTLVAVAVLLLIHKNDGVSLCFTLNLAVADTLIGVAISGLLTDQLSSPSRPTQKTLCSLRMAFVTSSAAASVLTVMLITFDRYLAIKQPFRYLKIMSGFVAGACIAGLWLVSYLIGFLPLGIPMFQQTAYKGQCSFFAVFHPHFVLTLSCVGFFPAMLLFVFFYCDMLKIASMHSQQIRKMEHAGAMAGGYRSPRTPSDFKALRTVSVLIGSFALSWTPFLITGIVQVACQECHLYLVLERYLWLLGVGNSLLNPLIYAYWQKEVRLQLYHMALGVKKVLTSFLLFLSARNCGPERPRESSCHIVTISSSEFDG
Test: Human GPR119 activation assay (cAMP, HTRF)
Assay type: cell-based
Conditions: 1 h; 1 nM; HEK293 cells transiently expressing human GPR119; relative to maximum effect of OEA; read-out: hGPR119 activation ability (cAMP assay) Relative Response % vs OEA
ASSAY_READOUT: Emax at 0.001 µM (%)

1. CC(C)c1noc(N2CCC(CCCOc3cc(F)c(-c4noc(C(C)C)n4)c(F)c3)CC2)n1 [Example 40] | 63.7
2. CCC(C)c1nc(-c2c(F)cc(OCCCC3CCN(c4ncc(-c5noc(CC(C)C)n5)cn4)CC3)cc2F)no1 (stereo not shown) [Example 33] | 66.8
3. Cc1nnc(-c2c(F)cc(OCCCC3CCN(c4nc(CC(F)(F)F)no4)CC3)cc2F)o1 [Example 58] | 699
4. CCc1cnc(N2CCC(CCCOc3cc(F)c(-c4nnc(C)o4)c(F)c3)CC2)nc1 [Example 42] | 127
5. CC(C)c1nc(-c2c(F)cc(OCCCC3CCN(c4ccc(C(F)(F)F)cn4)CC3)cc2F)no1 [Example 38] | 102
6. CC(C)c1noc(N2CCC(CCCOc3cc(F)c(-c4nnc(C(C)C)o4)c(F)c3)CC2)n1 [Example 57] | 255
7. CCCc1noc(N2CCC(CCCOc3cc(F)c(-c4nnc(CC)o4)c(F)c3)CC2)n1 [Example 53] | 94.3
8. CCc1cnc(N2CCC(CCCOc3cc(F)c(-c4noc([C@@H](O)CC)n4)c(F)c3)CC2)nc1 [Example 19] | 46.5
9. CCc1cnc(N2CCC(CCCOc3cc(F)c(C4=N[C@@H](C)CO4)c(F)c3)CC2)nc1 [Example 3] | 192
10. CCCc1cnc(N2CCC(CCCOc3cc(F)c(-c4noc(C(C)C)n4)c(F)c3)CC2)nc1 [Example 23] | 78.3
11. COCc1nc(-c2c(F)cc(OCCCC3CCN(c4ncc(-c5noc(CC(C)C)n5)cn4)CC3)cc2F)no1 [Example 34] | 82.1
12. CCc1cnc(N2CCC(CCCOc3cc(F)c(-c4noc(C[C@H](C)O)n4)c(F)c3)CC2)nc1 [Example 21] | 160
13. CC(C)c1nnc(-c2c(F)cc(OCCCC3CCN(c4ncc(C(F)(F)F)cn4)CC3)cc2F)s1 [Example 64] | 77
14. CC(C)c1nc(N2CCC(CCCOc3cc(F)c(-c4nnc(C(C)C)o4)c(F)c3)CC2)no1 [Example 59] | 140
15. CCc1nnc(-c2c(F)cc(OCCCC3CCN(c4ncc(C(F)(F)F)cn4)CC3)cc2F)o1 [Example 47] | 66
16. CC(C)c1nc(-c2c(F)cc(OCCCC3CCN(c4ncc(Br)cn4)CC3)cc2F)no1 [Example 29] | 75.3
17. CC(C)c1noc(N2CCC(CCCOc3cc(F)c(C4=N[C@H](C)CO4)c(F)c3)CC2)n1 [Example 10] | 192
18. CC(C)c1nc(-c2c(F)cc(OCCCC3CCN(c4ncc(Cl)cn4)CC3)cc2F)no1 [Example 28] | 23.8
19. CCc1cnc(N2CCC(CCCOc3cc(F)c(-c4nnc(CC)o4)c(F)c3)CC2)nc1 [Example 43] | 260
20. CC(C)Cc1nc(-c2cnc(N3CCC(CCCOc4cc(F)c(-c5noc(C(C)(C)CO)n5)c(F)c4)CC3)nc2)no1 [Example 36] | 66.4
21. CC(C)c1nnc(-c2c(F)cc(OCCCC3CCN(c4cnc(Cl)cn4)CC3)cc2F)o1 [Example 51] | 90.7
22. CC(C)c1noc(N2CCC(CCCOc3cc(F)c(C4=NCC(C)(C)O4)c(F)c3)CC2)n1 [Example 12] | 116
23. Cc1nnc(-c2c(F)cc(OCCCC3CCN(c4ncc(C(F)(F)F)cn4)CC3)cc2F)o1 [Example 46] | 209
24. CCCCCc1cnc(N2CCC(CCCOc3cc(F)c(-c4noc(C(C)C)n4)c(F)c3)CC2)nc1 [Example 24] | 132
25. CC(C)c1nc(-c2c(F)cc(OCCCC3CCN(c4cnc(Cl)cn4)CC3)cc2F)no1 [Example 37] | 52.1
26. CC(C)c1nnc(-c2c(F)cc(OCCCC3CCN(c4ncc(F)cn4)CC3)cc2F)s1 [Example 63] | 114
27. CC[C@H](O)c1nc(-c2c(F)cc(OCCCC3CCN(c4ncc(-c5noc(CC(C)C)n5)cn4)CC3)cc2F)no1 [Example 35] | 52.5
28. CCc1cnc(N2CCC(CCCOc3cc(F)c(C4=NC[C@H](CO)O4)c(F)c3)CC2)nc1 [Example 7] | 51.3
29. Cc1nc(-c2c(F)cc(OCCCC3CCN(c4nc(C(C)C)no4)CC3)cc2F)no1 [Example 39] | 120
30. CCc1cnc(N2CCC(CCCOc3cc(F)c(C4=NC[C@H](C)O4)c(F)c3)CC2)nc1 [Example 4] | 79.6
31. CCc1cnc(N2CCC(CCCOc3cc(F)c(-c4noc(CCO)n4)c(F)c3)CC2)nc1 [Example 18] | 303

* * *

Listed compounds paired with reported Emax at 0.01 µM
target: Human GPR119 (Homo sapiens, UniProt Q8TDV5); construct: host or cells: HEK293 (ATCC); assay: Human GPR119 activation assay (cAMP, HTRF); type: cell-based; details: 1 h; 10 nM; HEK293 cells transiently expressing human GPR119; relative to maximum effect of OEA; read-out: hGPR119 activation ability (cAMP assay) Relative Response % vs OEA
ASSAY_READOUT: Emax at 0.01 µM (%)

1) CCCc1cnc(N2CCC(CCCOc3cc(F)c(-c4nnc(C(C)C)s4)c(F)c3)CC2)nc1 [Example 61] | 186
2) CCCc1cnc(N2CCC(CCCOc3cc(F)c(-c4noc(C(C)C)n4)c(F)c3)CC2)nc1 [Example 23] | 141
3) CC(C)c1noc(N2CCC(CCCOc3cc(F)c(C4=NCC(C)(C)O4)c(F)c3)CC2)n1 [Example 12] | 232
4) CC(C)Cc1nc(-c2cnc(N3CCC(CCCOc4cc(F)c(-c5noc(C(C)C)n5)c(F)c4)CC3)nc2)no1 [Example 32] | 288
5) CC[C@H](O)c1nc(-c2c(F)cc(OCCCC3CCN(c4ncc(-c5noc(CC(C)C)n5)cn4)CC3)cc2F)no1 [Example 35] | 118
6) CC(C)c1nc(-c2c(F)cc(OCCCC3CCN(c4ncc(C(F)(F)F)cn4)CC3)cc2F)no1 [Example 25] | 274
7) CC(C)c1noc(N2CCC(CCCOc3cc(F)c(-c4noc(CO)n4)c(F)c3)CC2)n1 [Example 41] | 203
